assay remarks: Solubility in fasted-state simulated colonic fluid (FaSSCoF)
Format: physicochemical
details: fasted-state simulated colonic fluid (FaSSCoF), 25 °C, pH 6.5, fassgf or other biorelevant, thermodynamic from solid, pH 6.5, 25° C., 24 h; read-out: pH 6.5 FaSSCoF Solubility Run 3
measure: solubility thermodynamic at 24 h (µg/mL)

[
  {
    "molecule": "COc1cc(Nc2cc(Oc3ccc(NC(=O)Nc4cc(C(C)(C)C)cc(NS(C)(=O)=O)c4OC)c4ccccc34)ccn2)ccc1C(=O)O [Example 1]",
    "readout number": 10
  }
]

---

assay remarks: Systemic pharmacokinetics and total colon tissue distribution after single oral administration
Type: in vivo, mouse
details: male, C57BL/6, mouse, total colon; mice, oral 5 mg/kg, 12 h, compound 1 measured; read-out: Mean total colon level
Counter-ions that a name gives are not always drawn.
measure: concentration at 12 h

[
  {
    "molecule": "COc1cc(Nc2cc(Oc3ccc(NC(=O)Nc4cc(C(C)(C)C)cc(NS(C)(=O)=O)c4OC)c4ccccc34)ccn2)ccc1C(=O)O [1 (sodium salt)]",
    "result": "535 ng/g"
  }
]
